- System: phospho-ERK
- procedureSummary: phospho-ERK ELISA in ST88 cells
- Assay type: cell-based
pEC50: −log10 of the molar value.

>  <molecule>
Cn1c(Nc2ccc(C(F)(F)F)cc2)nc2cc(Oc3ccnc(-c4ncc(C(F)(F)F)[nH]4)c3)ccc21

>  <systemTested>
phospho-ERK

>  <pEC50>
6.73

$$$$

The origin of these recorded values is patent US20110281917A1.
